Kindly state kon for each of the entries shown.
# SYSTEM: T1, human W3785-hProl.ECD.His (Human-TNFR2-His) protein (human, UniProt P20333 23-257)
# T1 construct: extracellular domain; not shown: His tag
# T1 sequence (looked up): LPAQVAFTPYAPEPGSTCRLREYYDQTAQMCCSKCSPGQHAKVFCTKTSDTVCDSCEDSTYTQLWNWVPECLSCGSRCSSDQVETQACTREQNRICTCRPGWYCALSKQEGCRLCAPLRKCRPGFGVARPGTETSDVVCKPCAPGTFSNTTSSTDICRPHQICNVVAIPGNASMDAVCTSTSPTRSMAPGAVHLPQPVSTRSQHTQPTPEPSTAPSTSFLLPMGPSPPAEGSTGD
# MEASUREMENT_DESCRIPTION: BLI (Octet Red96e), antibody on AHC sensor, Human-TNFR2-His in solution, multiple concentrations
Quick note: give the figure in M⁻¹ s⁻¹, leave out the unit.

## Task Find the recorded kon belonging to Antibody 12 (antibody, V domains shown, detected with anti-human IgG and captured on AHC sensors) VH: QVQLVQSGAEVKKPGASVKVSCKASGYTFTDYIIHWVRQAPGQGLEWMGWIDPDYGNTDYADKFKKRVTMTADTSISTAFMELSRLRSDDTAVYYCARDDGSPLVMDAWGQGTLVTVSS VL: DIQMTQSPSSLSASVGDRVTITCQGSQNIDNYLAWFQQKPGKAPKLLIYSTYSLQTGVPSRFSGSRSGTDFTLTISSLQPEDFATYFCFQYNNGYMFGGGTKLELK and report it.
## Result 1.21e+06

## Task Follow-up entry: Antibody 14 (antibody, V domains shown, detected with anti-human IgG and captured on AHC sensors) VH: QVQLVQSGAEVKKPGASVKVSCKASGYTFTDYIIHWVRQAPGQGLEWMGWIDPDYGNTDYADKFKKRVTMTADTSISTAFMELSRLRSDDTAVYYCARDDASPLVMDAWGQGTLVTVSS VL: DIQMTQSPSSLSASVGDRVTITCNGSQNIDNYLAWFQQKPGKAPKLLIYSTYSLQTGVPSRFSGSRSGTDFTLTISSLQPEDFATYFCFQYNNGYMFGGGTKLELK
## Result 931000

## Task Follow-up entry: Antibody 25 (antibody, V domains shown, captured on AHC sensors) VH: EVQLVQSGAEVKKPGATVKISCKVSGYSITDYLLHWVQQAPGKGLEWMGWIDPEEGKTKYGQKFQSRVTITADTSTDTAYMELSSLRSEDTAVYYCAAQSGTGTMDAWGQGTLVTVSS VL: DIVMTQSPATLSVSPGERATLSCKASQNVGSNVDWYQQKPGQSPRVLIYKASIRYTGIPARFSGSGSGTEFTLTISILQSEDFAVYFCMQSKSYPITFGQGTKLEIK
## Result 1.39e+06
